METHOD_NOTES: Anti-glycosylation activity using BSA assessed as inhibition of AGE formation measured after 30 hrs by fluorescence spectrophotometric method
Format: functional
Listing of recorded IC50 by entry.
ASSAY_METRIC: IC50 (µM)

> print(dat)
                               record.smiles  assay.metric  uom  reported.measurement
 1  COc1ccc(-c2cc(=O)c3ccc(OCCCCCCN4CCC(C)CC4)cc3o2)cc1          IC50   µM                  57.2
 2  COc1cc(-c2cc(=O)c3ccc(OCCCN4CCC(C)CC4)cc3o2)cc(OC)c1OC          IC50   µM                  41.8
 3                                  N=C(N)NN          IC50   µM                  40.1
 4        COc1ccc(-c2cc(=O)c3ccc(O)cc3o2)cc1          IC50   µM                    42
 5  COc1ccc(-c2cc(=O)c3ccc(OCCCN4CCC(C)CC4)cc3o2)cc1OC          IC50   µM                  47.7
 6  COc1cc(-c2cc(=O)c3ccc(OCCN4CCC(C)CC4)cc3o2)cc(OC)c1OC          IC50   µM                  37.1
 7  COc1cc(-c2cc(=O)c3ccc(O)cc3o2)cc(OC)c1OC          IC50   µM                  51.4
 8      COc1ccc(-c2cc(=O)c3ccc(O)cc3o2)cc1OC          IC50   µM                  47.4
 9  COc1ccc(-c2cc(=O)c3ccc(OCCCN4CCC(C)CC4)cc3o2)cc1          IC50   µM                  42.6
10  COc1ccc(-c2cc(=O)c3ccc(OCCCCN4CCC(C)CC4)cc3o2)cc1          IC50   µM                  48.2
11  COc1ccc(-c2cc(=O)c3ccc(OCCN4CCC(C)CC4)cc3o2)cc1OC          IC50   µM                  42.1
12  COc1ccc(-c2cc(=O)c3ccc(OCCCCCN4CCC(C)CC4)cc3o2)cc1          IC50   µM                  55.1

====

SYSTEM_TESTED: Acetylcholinesterase (Rattus norvegicus, UniProt P37136)
Sequence (P37136 whole entry): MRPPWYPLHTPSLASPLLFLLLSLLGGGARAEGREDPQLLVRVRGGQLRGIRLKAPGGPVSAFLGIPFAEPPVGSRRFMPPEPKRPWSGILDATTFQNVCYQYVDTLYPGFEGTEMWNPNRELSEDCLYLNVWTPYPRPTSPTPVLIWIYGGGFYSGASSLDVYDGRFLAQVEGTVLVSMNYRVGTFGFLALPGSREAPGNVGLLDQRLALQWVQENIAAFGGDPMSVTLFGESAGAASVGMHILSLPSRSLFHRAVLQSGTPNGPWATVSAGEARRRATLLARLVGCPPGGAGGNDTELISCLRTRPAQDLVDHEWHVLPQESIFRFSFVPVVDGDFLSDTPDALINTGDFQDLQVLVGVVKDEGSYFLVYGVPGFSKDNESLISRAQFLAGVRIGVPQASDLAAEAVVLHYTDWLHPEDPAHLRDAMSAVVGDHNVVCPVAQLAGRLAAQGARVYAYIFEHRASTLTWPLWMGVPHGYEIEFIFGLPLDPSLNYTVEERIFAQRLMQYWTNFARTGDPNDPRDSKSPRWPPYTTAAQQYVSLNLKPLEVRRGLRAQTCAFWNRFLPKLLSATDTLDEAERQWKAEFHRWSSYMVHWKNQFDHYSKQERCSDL
ASSAY_METRIC: IC50 (nM)

> print(dat)
                               record.smiles  assay.metric  uom  reported.measurement
 1        COc1ccc(-c2cc(=O)c3ccc(O)cc3o2)cc1          IC50   nM                    35
 2  COc1cc(-c2cc(=O)c3ccc(OCCN4CCC(C)CC4)cc3o2)cc(OC)c1OC          IC50   nM                  5.87
 3  COc1ccc(-c2cc(=O)c3ccc(OCCCN4CCC(C)CC4)cc3o2)cc1          IC50   nM                   7.7
 4  COc1ccc(-c2cc(=O)c3ccc(OCCCCCCN4CCC(C)CC4)cc3o2)cc1          IC50   nM                  48.1
 5      COc1ccc(-c2cc(=O)c3ccc(O)cc3o2)cc1OC          IC50   nM                  37.3
 6  COc1ccc(-c2cc(=O)c3ccc(OCCCN4CCC(C)CC4)cc3o2)cc1OC          IC50   nM                  6.48
 7  COc1cc(-c2cc(=O)c3ccc(OCCCN4CCC(C)CC4)cc3o2)cc(OC)c1OC          IC50   nM                  6.12
 8  COc1cc(-c2cc(=O)c3ccc(O)cc3o2)cc(OC)c1OC          IC50   nM                  44.2
 9  COc1ccc(-c2cc(=O)c3ccc(OCCCCCN4CCC(C)CC4)cc3o2)cc1          IC50   nM                  15.6
10  COc1ccc(-c2cc(=O)c3ccc(OCCCCN4CCC(C)CC4)cc3o2)cc1          IC50   nM                  13.5
11  COc1ccc(-c2cc(=O)c3ccc(OCCN4CCC(C)CC4)cc3o2)cc1OC          IC50   nM                  6.77
